System: Cheumatopsyche
test-method-notes: Insecticidal activity against first-instar larvae of Cheumatopsyche brevilineata after 48 hr
Format: functional, organism-based
result-type: EC50 (ng/mL)
Your answer is read as ng/mL, so omit the unit and give the number.

molecule | result-type | reported-value
CCOP(=S)(OCC)Oc1cc(C)nc(C(C)C)n1 [DIMPYLATE] | EC50 | 1.77

GET /values?readout=EC50&system=Cheumatopsyche&item= CN(C)C(CSS(=O)(=O)c1ccccc1)CSS(=O)(=O)c1ccccc1 [BENSULTAP]
148

GET /values?readout=EC50&system=Cheumatopsyche&item= CCN(Cc1ccc(Cl)nc1)/C(=C/[N+](=O)[O-])NC
45

GET /values?readout=EC50&system=Cheumatopsyche&item= CCOC(=O)CCN(SN(C)C(=O)Oc1cccc2c1OC(C)(C)C2)C(C)C [BENFURACARB]
6.66

GET /values?readout=EC50&system=Cheumatopsyche&item= CCOC(=O)C(SP(=S)(OC)OC)c1ccccc1 (stereo not given) [PHENTHOATE]
0.88
